- CONDITIONS USED: rat
REPORTED ENDPOINT: Depletion after 16 h of incubation with cells (%)

[[record]]
compound = "Cc1ccccc1OP(=O)(Oc1ccccc1C)Oc1ccccc1C [Tri-o-cresyl phosphate]"
result = 93.36

[[record]]
compound = "CCOP(=S)(NC(C)C)Oc1ccccc1C(=O)OC(C)C (stereo not shown)"
result = 88.45

[[record]]
compound = "CCOP(=S)(OCC)Oc1ccc([N+](=O)[O-])cc1"
result = 98.86

[[record]]
compound = "CCOP(=S)(OCC)SCCSCC"
result = 93.89

[[record]]
compound = "COP(=S)(OC)Oc1cc(Cl)c(I)cc1Cl"
result = 99.99

[[record]]
compound = "CCOP(=O)(OCC)OC(=CCl)c1ccc(Cl)cc1Cl"
result = 55.04

[[record]]
compound = "COP(=S)(OC)Oc1ccc(S(=O)(=O)N(C)C)cc1"
result = 87.7

[[record]]
compound = "Cc1cccc2c1cc1ccc3cccc4ccc2c1c34"
result = 52.01

[[record]]
compound = "CCNP(=S)(OC)O/C(C)=C/C(=O)OC(C)C (stereo not shown)"
result = 91.32

[[record]]
compound = "Cc1cc(=O)oc2cc(O)ccc12"
result = 46.53


Each recorded value in this set is attributed to paper PMC9151520.
